molecular target: yeast Sir2 (ySir2) (Saccharomyces cerevisiae); construct: His; made in house; test: Yeast Sir2 deacetylase inhibition, HDAC fluorescent activity assay (BIOMOL AK-500); type: biochemical; details: 200 μM NAD+, 30° C., 60 min
Sequence (P06700 whole entry): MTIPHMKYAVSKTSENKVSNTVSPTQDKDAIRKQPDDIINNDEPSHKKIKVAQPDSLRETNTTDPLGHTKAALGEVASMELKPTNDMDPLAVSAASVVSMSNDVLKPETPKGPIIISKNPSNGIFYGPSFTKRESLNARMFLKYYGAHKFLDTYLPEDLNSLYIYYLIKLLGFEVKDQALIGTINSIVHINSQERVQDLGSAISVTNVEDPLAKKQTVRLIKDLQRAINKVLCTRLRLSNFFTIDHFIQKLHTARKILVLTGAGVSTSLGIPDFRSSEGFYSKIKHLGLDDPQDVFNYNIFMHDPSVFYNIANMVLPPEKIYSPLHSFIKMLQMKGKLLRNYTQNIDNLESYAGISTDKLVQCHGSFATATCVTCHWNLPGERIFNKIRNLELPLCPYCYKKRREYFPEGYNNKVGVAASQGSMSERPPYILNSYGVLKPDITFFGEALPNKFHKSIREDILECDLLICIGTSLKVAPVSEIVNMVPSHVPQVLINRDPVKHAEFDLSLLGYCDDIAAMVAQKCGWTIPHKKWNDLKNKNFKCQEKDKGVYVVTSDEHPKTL
REPORTED_PROPERTY: IC50 (µM)
Write the answer as a number in µM, unit excluded.

CC(NC(=O)c1ccc(/N=C/c2c(O)ccc3ccccc23)cc1)c1ccccc1 (centres unmarked) [Compound 8]; 33

Shift focus to the following entry.
Q: Reported IC50, compound CC(NC(=O)c1cccc(/N=C/c2c(O)ccc3ccccc23)c1)c1ccccc1 (centres unmarked) [Compound 7] : ____
Ans: 72

----------
Reported melting point values are given for each entry in this list.

Here are 3 compounds together with their reported answers.
CC(NC(=O)c1ccccc1/N=C/c1cccc2ccccc12)c1ccccc1 (stereo not shown); 101 to 103 °C
NC(=O)c1ccccc1/N=C/c1c(O)ccc2ccccc12; 238 to 240 °C
O=C(O)c1ccccc1/N=C/c1c(O)ccc2ccccc12; 180 to 182 °C

Q: Reported melting point, compound N#Cc1ccccc1/N=C/c1c(O)ccc2ccccc12 : ____
Ans: 139 to 141 °C

----------
Reported IC50 values are given for each entry in this list.
molecular target: SIRT2 isoform 1 (Homo sapiens, UniProt Q8IXJ6); construct: His; made in house; experiment: SIRT2 deacetylase inhibition, HDAC fluorescent activity assay (BIOMOL AK-500); type: biochemical; settings: dose response curve
Sequence (Q8IXJ6 whole entry, canonical isoform): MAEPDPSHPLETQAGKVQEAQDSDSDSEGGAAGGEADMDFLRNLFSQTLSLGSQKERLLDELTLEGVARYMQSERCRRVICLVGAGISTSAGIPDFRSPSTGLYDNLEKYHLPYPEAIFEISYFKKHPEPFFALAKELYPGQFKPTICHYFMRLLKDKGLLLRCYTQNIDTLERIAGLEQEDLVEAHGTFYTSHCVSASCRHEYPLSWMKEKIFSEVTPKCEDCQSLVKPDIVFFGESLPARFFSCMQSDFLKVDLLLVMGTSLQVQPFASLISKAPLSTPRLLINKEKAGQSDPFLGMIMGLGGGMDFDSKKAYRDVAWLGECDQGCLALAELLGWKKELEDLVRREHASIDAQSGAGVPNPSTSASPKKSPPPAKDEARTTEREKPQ
Write the answer as a number in µM, unit excluded.

CC(NC(=O)c1cccc(/N=C/c2c(O)ccc3ccccc23)c1)c1ccccc1 (centres unmarked); 35.7

Shift focus to the following entry.
Q: Reported IC50, compound CC(NC(=O)c1ccc(/N=C/c2c(O)ccc3ccccc23)cc1)c1ccccc1 (centres unmarked) : ____
Ans: 25.9

----------
target: human SIRT1 (hSIRT1) (Homo sapiens, UniProt Q96EB6); construct: His; made in house; experiment: Human SIRT1 deacetylase inhibition, HDAC fluorescent activity assay (BIOMOL AK-500); assay type: biochemical; conditions: 200 μM NAD+, 37° C., 60 min
Sequence (Q96EB6 whole entry): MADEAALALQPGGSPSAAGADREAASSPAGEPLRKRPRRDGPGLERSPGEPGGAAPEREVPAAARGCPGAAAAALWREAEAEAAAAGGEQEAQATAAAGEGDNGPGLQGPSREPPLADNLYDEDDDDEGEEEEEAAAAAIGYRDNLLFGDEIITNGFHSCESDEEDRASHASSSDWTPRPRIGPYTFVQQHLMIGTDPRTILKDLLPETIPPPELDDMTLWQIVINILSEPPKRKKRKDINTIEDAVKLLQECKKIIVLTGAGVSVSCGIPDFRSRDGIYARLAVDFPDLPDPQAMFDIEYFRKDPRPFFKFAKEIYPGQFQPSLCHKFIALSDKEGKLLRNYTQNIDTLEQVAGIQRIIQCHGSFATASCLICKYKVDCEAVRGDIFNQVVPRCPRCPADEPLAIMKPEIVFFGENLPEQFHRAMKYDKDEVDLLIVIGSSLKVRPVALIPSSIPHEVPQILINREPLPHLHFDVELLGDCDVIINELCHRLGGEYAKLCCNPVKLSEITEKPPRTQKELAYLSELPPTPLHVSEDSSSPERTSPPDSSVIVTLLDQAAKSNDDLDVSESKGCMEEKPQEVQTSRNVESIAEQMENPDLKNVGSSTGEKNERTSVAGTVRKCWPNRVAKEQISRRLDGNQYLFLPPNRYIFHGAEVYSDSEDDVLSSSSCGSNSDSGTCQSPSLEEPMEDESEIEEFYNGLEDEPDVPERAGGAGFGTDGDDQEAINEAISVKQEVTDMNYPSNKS
Reported IC50 values are given for each entry in this list.
Write the answer as a number in µM, unit excluded.

CC(NC(=O)c1cccc(/N=C/c2c(O)ccc3ccccc23)c1)c1ccccc1 (centres unmarked) [Compound 7]; 59

Shift focus to the following entry.
Q: Please tell me: IC50 of CC(NC(=O)c1ccc(/N=C/c2c(O)ccc3ccccc23)cc1)c1ccccc1 (centres unmarked) [Compound 8] , system human SIRT1 (hSIRT1) (Homo sapiens, UniProt Q96EB6)?
Ans: 13

----------
biological target: SIRT2 isoform 1 (Homo sapiens, UniProt Q8IXJ6); construct: His; made in house; assay: SIRT2 deacetylase inhibition, HDAC fluorescent activity assay (BIOMOL AK-500); format: biochemical; conditions: read-out: SIRT2 % inhibition at 100 μM; 100 μM compound
REPORTED_PROPERTY: inhibition at 100 µM (%)
Write the answer as a number in %, unit excluded.

Here are 3 compounds together with their reported answers.
CC(NC(=O)c1ccccc1/N=C/c1c(O)ccc2ccccc12)c1ccccc1 (racemic) [Compound 1, sirtinol, reference compound]; 71
C[C@H](NC(=O)c1ccccc1/N=C/c1c(O)ccc2ccccc12)c1ccccc1; 73.5
CC(NC(=O)c1cccc(/N=C/c2c(O)ccc3ccccc23)c1)c1ccccc1 (centres unmarked); 79.2

Q: Reported inhibition at 100 µM, compound C[C@@H](NC(=O)c1ccccc1/N=C/c1c(O)ccc2ccccc12)c1ccccc1 [Compound 9, (R)-sirtinol] : ____
Ans: 72.2

Q: Also need CC(NC(=O)c1ccc(/N=C/c2c(O)ccc3ccccc23)cc1)c1ccccc1 (centres unmarked) , thanks.
Ans: 80.2
